# System: cancer cell lines from the cancer cell line encyclopedia (CCLE)
# test: Cell line profiling (CLiP) proliferation experiment
# Type: cell-based
# experimental-setup: RERF-LC-AI cells; read-out: Inflection Point
readout-name: pEC50
Quick note: pEC50 means taking -log10 of the concentration in moles per liter.

Using the record for CC(C)[C@@]12C[C@@H](O)[C@@](C)(O1)[C@@H]1CC[C@@H](C)[C@H]1[C@@H]2OC(=O)/C=C/c1ccccc1 [Englerin B] , report its pEC50. 4.75

----------
# System: cancer cell lines from the cancer cell line encyclopedia (CCLE)
# test: Cell line profiling (CLiP) proliferation experiment
# Format: cell-based
# experimental-setup: Homo sapiens, NCI-H1299, cell line NCI-H1299 (lung); read-out: Crossing Point
readout-name: IC50 (µM)
Dear colleague, please return just the value in µM, with no unit written.

Using the record for CC(C)[C@@]12C[C@@H](O)[C@@](C)(O1)[C@@H]1CC[C@@H](C)[C@H]1[C@@H]2OC(=O)/C=C/c1ccccc1 , report its IC50. 13

----------
# System: cancer cell lines from the cancer cell line encyclopedia (CCLE)
# test: Cell line profiling (CLiP) proliferation experiment
# Type: cell-based
# experimental-setup: Homo sapiens, HCC95, cell line HCC-95, lung; read-out: Inflection Point
readout-name: EC50 (µM)
Dear colleague, please return just the value in µM, with no unit written.

Using the record for CC(C)[C@@]12C[C@@H](O)[C@@](C)(O1)[C@@H]1CC[C@@H](C)[C@H]1[C@@H]2OC(=O)/C=C/c1ccccc1 , report its EC50. 26.7

----------
# Test system: cancer cell lines from the cancer cell line encyclopedia (CCLE)
# test: Cell line profiling (CLiP) proliferation experiment
# Assay type: cell-based
# experimental-setup: Homo sapiens, A101D, cell line A101D; skin; NS; read-out: Inflection Point
readout-name: pEC50
Quick note: pEC50 means taking -log10 of the concentration in moles per liter.

Using the record for CC(C)[C@@]12C[C@@H](O)[C@@](C)(O1)[C@@H]1CC[C@@H](C)[C@H]1[C@@H]2OC(=O)/C=C/c1ccccc1 , report its pEC50. 4.72

----------
# Test system: cancer cell lines from the cancer cell line encyclopedia (CCLE)
# test: Cell line profiling (CLiP) proliferation experiment
# Type: cell-based
# experimental-setup: Homo sapiens, LN-229, LN-229 (central_nervous_system); read-out: Crossing Point
readout-name: IC50

Using the record for CC(C)[C@@]12C[C@@H](O)[C@@](C)(O1)[C@@H]1CC[C@@H](C)[C@H]1[C@@H]2OC(=O)/C=C/c1ccccc1 , report its IC50. > 30 µM

----------
# Tested on: cancer cell lines from the cancer cell line encyclopedia (CCLE)
# test: Cell line profiling (CLiP) proliferation experiment
# Format: cell-based
# experimental-setup: WS1, WS1 cell line; skin; read-out: Crossing Point
pIC50: −log10 of the molar value.
readout-name: pIC50

Using the record for CC(C)[C@@]12C[C@@H](O)[C@@](C)(O1)[C@@H]1CC[C@@H](C)[C@H]1[C@@H]2OC(=O)/C=C/c1ccccc1 [Englerin B] , report its pIC50. < 4.52

----------
# Tested on: cancer cell lines from the cancer cell line encyclopedia (CCLE)
# test: Cell line profiling (CLiP) proliferation experiment
# Type: cell-based
# experimental-setup: Homo sapiens, MONO-MAC-6, cell line MONO-MAC-6 (haematopoietic_and_lymphoid_tissue); read-out: Inflection Point
readout-name: pEC50
Quick note: pEC50 means taking -log10 of the concentration in moles per liter.

Using the record for CC(C)[C@@]12C[C@@H](O)[C@@](C)(O1)[C@@H]1CC[C@@H](C)[C@H]1[C@@H]2OC(=O)/C=C/c1ccccc1 , report its pEC50. 4.73

----------
# Test system: cancer cell lines from the cancer cell line encyclopedia (CCLE)
# test: Cell line profiling (CLiP) proliferation experiment
# Assay type: cell-based
# experimental-setup: SH-10-TC, SH-10-TC (stomach); read-out: Crossing Point
readout-name: IC50

Using the record for CC(C)[C@@]12C[C@@H](O)[C@@](C)(O1)[C@@H]1CC[C@@H](C)[C@H]1[C@@H]2OC(=O)/C=C/c1ccccc1 , report its IC50. > 30 µM

----------
# Tested on: cancer cell lines from the cancer cell line encyclopedia (CCLE)
# test: Cell line profiling (CLiP) proliferation experiment
# Type: cell-based
# experimental-setup: Homo sapiens, J82, J82; read-out: Inflection Point
readout-name: EC50 (µM)
Dear colleague, please return just the value in µM, with no unit written.

Using the record for CC(C)[C@@]12C[C@@H](O)[C@@](C)(O1)[C@@H]1CC[C@@H](C)[C@H]1[C@@H]2OC(=O)/C=C/c1ccccc1 , report its EC50. 20.1

----------
# System: cancer cell lines from the cancer cell line encyclopedia (CCLE)
# test: Cell line profiling (CLiP) proliferation experiment
# Type: cell-based
# experimental-setup: Homo sapiens, OC-314, OC 314, ovary, serous_carcinoma; read-out: Inflection Point
readout-name: pEC50
Quick note: pEC50 means taking -log10 of the concentration in moles per liter.

Using the record for CC(C)[C@@]12C[C@@H](O)[C@@](C)(O1)[C@@H]1CC[C@@H](C)[C@H]1[C@@H]2OC(=O)/C=C/c1ccccc1 , report its pEC50. 4.83

----------
# Tested on: cancer cell lines from the cancer cell line encyclopedia (CCLE)
# test: Cell line profiling (CLiP) proliferation experiment
# Type: cell-based
# experimental-setup: Homo sapiens, SK-OV-3, cell line SK-OV-3, ovary, adenocarcinoma; read-out: Crossing Point
pIC50: −log10 of the molar value.
readout-name: pIC50

Using the record for CC(C)[C@@]12C[C@@H](O)[C@@](C)(O1)[C@@H]1CC[C@@H](C)[C@H]1[C@@H]2OC(=O)/C=C/c1ccccc1 , report its pIC50. < 4.52

----------
# Tested on: cancer cell lines from the cancer cell line encyclopedia (CCLE)
# test: Cell line profiling (CLiP) proliferation experiment
# Format: cell-based
# experimental-setup: Homo sapiens, KYSE-270, KYSE-270 (oesophagus); read-out: Crossing Point
# Procedure: Compound profiling experiment and data analysis was performed as previously described. Data was imported and plotted using the Tibco Spotfire DXP application. Lines were categorized as sensitive, intermediate and refractory as follows: Amax<-40 & Inflection Point <2 ~ Sensitive, Amax>-20 & Inflection Point >10 ~ Refractory, all else were called Intermediate. Cancer Cell line HG-U133 Plus 2 data was processed and normalized as described. […]
readout-name: IC50

Using the record for CC(C)[C@@]12C[C@@H](O)[C@@](C)(O1)[C@@H]1CC[C@@H](C)[C@H]1[C@@H]2OC(=O)/C=C/c1ccccc1 , report its IC50. > 30 µM

----------
# System: cancer cell lines from the cancer cell line encyclopedia (CCLE)
# test: Cell line profiling (CLiP) proliferation experiment
# Assay type: cell-based
# experimental-setup: cell line SNU-119, ovary, adenocarcinoma; read-out: Crossing Point
readout-name: IC50

Using the record for CC(C)[C@@]12C[C@@H](O)[C@@](C)(O1)[C@@H]1CC[C@@H](C)[C@H]1[C@@H]2OC(=O)/C=C/c1ccccc1 [Englerin B] , report its IC50. > 30 µM

----------
# Test system: cancer cell lines from the cancer cell line encyclopedia (CCLE)
# test: Cell line profiling (CLiP) proliferation experiment
# Type: cell-based
# experimental-setup: Homo sapiens, SK-N-DZ, SK-N-DZ cells; read-out: Crossing Point
pIC50: −log10 of the molar value.
readout-name: pIC50

Using the record for CC(C)[C@@]12C[C@@H](O)[C@@](C)(O1)[C@@H]1CC[C@@H](C)[C@H]1[C@@H]2OC(=O)/C=C/c1ccccc1 [Englerin B] , report its pIC50. < 4.52

----------
# Test system: cancer cell lines from the cancer cell line encyclopedia (CCLE)
# test: Cell line profiling (CLiP) proliferation experiment
# Format: cell-based
# experimental-setup: Homo sapiens, Calu-1, Calu-1, lung, squamous_cell_carcinoma; read-out: Crossing Point
readout-name: IC50

# get_value(readout= IC50, system= cancer cell lines from the cancer cell line encyclopedia (CCLE)) for CC(C)[C@@]12C[C@@H](O)[C@@](C)(O1)[C@@H]1CC[C@@H](C)[C@H]1[C@@H]2OC(=O)/C=C/c1ccccc1 > 30 µM
